Assay: Inhibitory activity towards HIV-I regulatory protein Rev and its viral RNA-binding site, Rev response element (RRE) binding
METRIC: pIC50
Expect pIC50 as a plain number equal to -log10 of the molar concentration.

Can you share its pIC50? I mean this molecule: CCC(C)CC(C)/C=C(/C=C(C)/C=C/C=C/C=C/C=C/C=C/c1cc2c(c(=O)o1)[C@H](O)[C@@H](O)[C@H](C(O)C(O)CO)O2)C(=O)O (stereo partly specified)
5.44
